- TEST PROTOCOL: Cytotoxicity against human Huh7ET cells by [3H]thymidine incorporation assay
- Assay type: cell-based, Huh-7
MEASURED PARAMETER: CC50

Example cases with answers are listed next.
- COMPOUND STRING: "COC(=O)N[C@H](C(=O)N1C[C@@H](C)C[C@H]1c1nc2cc(-c3cc4sc(-c5cc6nc([C@@H]7C[C@H](C)CN7C(=O)[C@@H](NC(=O)OC)C(C)C)[nH]c6s5)cc4s3)ccc2[nH]1)C(C)C"
  OBS VALUE: "> 20 µM"
- COMPOUND STRING: "COC(=O)N[C@H](C(=O)N1C[C@@H](C)C[C@H]1c1nc2cc(-c3cc4sc(-c5ccc6nc([C@@H]7C[C@H](C)CN7C(=O)[C@@H](NC(=O)OC)C(C)C)[nH]c6c5)cc4s3)ccc2[nH]1)C(C)C"
  OBS VALUE: "> 20 µM"

Req: Give reported CC50 value for COC(=O)N[C@H](C(=O)N1C[C@@H](C)C[C@H]1c1nc2cc(-c3cc4sc(-c5ccc6oc([C@@H]7C[C@H](C)CN7C(=O)[C@@H](NC(=O)OC)C(C)C)nc6c5)cc4s3)ccc2o1)C(C)C
Resp: > 20 µM

The values you see were collected from ChEMBL document CHEMBL3393019.
